biological target: GSK3A (Homo sapiens); assay: NanoBRET cellular target engagement assay, Nanoluc-GSK3A in HEK293 cells; conditions: NanoBRET GSK3α IC50, HEK293 cells, tracer K-8, 2 hours, 37° C
Sequence (P49840 whole entry): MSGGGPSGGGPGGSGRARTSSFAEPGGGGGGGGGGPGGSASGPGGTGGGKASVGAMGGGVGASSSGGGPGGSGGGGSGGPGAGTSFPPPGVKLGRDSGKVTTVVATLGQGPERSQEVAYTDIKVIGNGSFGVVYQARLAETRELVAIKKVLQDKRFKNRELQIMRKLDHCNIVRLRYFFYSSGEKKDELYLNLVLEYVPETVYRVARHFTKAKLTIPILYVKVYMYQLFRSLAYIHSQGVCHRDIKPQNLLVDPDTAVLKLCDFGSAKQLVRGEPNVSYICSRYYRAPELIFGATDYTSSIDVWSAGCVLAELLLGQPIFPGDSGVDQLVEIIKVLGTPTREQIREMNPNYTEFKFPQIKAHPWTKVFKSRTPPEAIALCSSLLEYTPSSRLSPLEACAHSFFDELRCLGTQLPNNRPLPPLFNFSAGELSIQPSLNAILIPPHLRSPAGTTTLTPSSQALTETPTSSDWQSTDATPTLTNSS
ATTRIBUTE_MEASURED: IC50

[[record]]
molecule = "COc1cc(Cl)c(-n2cnc(N)c(C(=O)Nc3cncc(C4COCCN4)c3)c2=O)c(Cl)c1 (single isomer, unassigned) [Example 212]"
attribute_measured = "IC50"
measured = "7.6 nM"

[[record]]
molecule = "CCc1cc(C)c(-n2cnc(N)c(C(=O)Nc3cncc([C@@H](C)N)c3)c2=O)c(C)c1 (single isomer, unassigned) [Example 218]"
attribute_measured = "IC50"
measured = "5.6 nM"

[[record]]
molecule = "CCOc1cc(Cl)c(-n2cnc(N)c(C(=O)Nc3cncc(C(C)N)c3)c2=O)c(Cl)c1 (single isomer, unassigned) [Example 142]"
attribute_measured = "IC50"
measured = "4.7 nM"

[[record]]
molecule = "CCOc1cc(C)c(-n2cnc(N)c(C(=O)Nc3cccc([C@@H](C)NC)c3)c2=O)c(Cl)c1 (atropisomer, axis not shown) [Example 71]"
attribute_measured = "IC50"
measured = "4.8 nM"

[[record]]
molecule = "CNCc1cncc(NC(=O)c2c(N)ncn(-c3c(C)cc(COC)cc3C)c2=O)c1 [Example 99]"
attribute_measured = "IC50"
measured = "7.4 nM"

[[record]]
molecule = "Cc1cc(C(F)F)cc(C)c1-n1cnc(N)c(C(=O)Nc2cncc([C@H]3CCC[C@H](C)N3)c2)c1=O (single isomer, unassigned) [Example 108]"
attribute_measured = "IC50"
measured = "8.7 nM"


###

Catalogue of pIC50 readings, one per entry.
target: GSK3B (Homo sapiens); test: NanoBRET cellular target engagement assay, Nanoluc-GSK3B in HEK293 cells; type: cell-based; parameters: expressed in transfected cells; details: NanoBRET GSK3β IC50, HEK293 cells, tracer K-8, 2 hours, 37° C
pIC50: −log10 of the molar value.
ATTRIBUTE_MEASURED: pIC50

[[record]]
compound = "Nc1ncn(-c2c(Cl)cc(C(F)(F)F)cc2Cl)c(=O)c1C(=O)Nc1cncc([C@@H]2CCCN2)c1"
measured = 6.25

[[record]]
compound = "CN(C)c1cc(Cl)c(-n2cnc(N)c(C(=O)Nc3cncc([C@@H]4CCCCN4)c3)c2=O)c(Cl)c1"
measured = 6.69

[[record]]
compound = "Cc1cc([C@@H](C)F)cc(C)c1-n1cnc(N)c(C(=O)Nc2cncc([C@H]3CCCCN3)c2)c1=O (single isomer, unassigned) [Example 185]"
measured = 6.89

[[record]]
compound = "NCc1cccc(NC(=O)c2c(N)ncn(-c3c(Cl)cccc3Cl)c2=O)c1C(F)(F)F"
measured = 6.07

[[record]]
compound = "Cc1cc(Cl)c(-n2cnc(N)c(C(=O)Nc3cncc([C@@H]4CCCN4)c3)c2=O)c(Cl)c1"
measured = 6.44

[[record]]
compound = "Nc1ncn(-c2c(Cl)cccc2Cl)c(=O)c1C(=O)Nc1cccc([C@@H]2CNC(=O)CN2)c1 (single isomer, unassigned) [Example 190]"
measured = 5.48

[[record]]
compound = "Cc1cc(C#N)cc(Cl)c1-n1cnc(N)c(C(=O)Nc2cccc([C@@H](C)N)c2)c1=O (atropisomer, axis not shown)"
measured = 6.77

[[record]]
compound = "NCc1cncc(NC(=O)c2c(N)ncn(-c3c(Cl)cc(OC4CC4)cc3Cl)c2=O)c1"
measured = 6.88

[[record]]
compound = "CCCOc1cc(Cl)c(-n2cnc(N)c(C(=O)Nc3cncc(CNCC)c3)c2=O)c(Cl)c1"
measured = 6.49

[[record]]
compound = "COc1cc(C)c(-n2cnc(N)c(C(=O)Nc3cccc([C@@H]4CCCN4)c3)c2=O)c(Cl)c1 (atropisomer, axis not shown)"
measured = 6.54

[[record]]
compound = "CCOc1cc(C)c(-n2cnc(N)c(C(=O)Nc3cnnc(C(N)=O)c3)c2=O)c(C)c1"
measured = 4.60

[[record]]
compound = "Nc1ncn(-c2c(Cl)cc(Cl)cc2Cl)c(=O)c1C(=O)Nc1cncc([C@@H]2CCCCN2)c1"
measured = 6.53

[[record]]
compound = "CCOCc1cc(C)c(-n2cnc(N)c(C(=O)Nc3cncc(C(C)N)c3)c2=O)c(C)c1 (single isomer, unassigned)"
measured = 6.34

[[record]]
compound = "Cc1cc(CC(=O)O)cc(C)c1-n1cnc(N)c(C(=O)Nc2cncc([C@H]3CCCCN3)c2)c1=O"
measured = 4.60

[[record]]
compound = "CO[C@H](C)c1cc(C)c(-n2cnc(N)c(C(=O)Nc3cncc([C@@H](C)N)c3)c2=O)c(C)c1 (single isomer, unassigned) [Example 174]"
measured = 6.25

[[record]]
compound = "Cc1cc(CS(C)(=O)=O)cc(C)c1-n1cnc(N)c(C(=O)Nc2cncc([C@H]3CCCCN3)c2)c1=O"
measured = 6.27

[[record]]
compound = "CCCOc1cc(C)c(-n2cnc(N)c(C(=O)Nc3cncc(CNC)c3)c2=O)c(C)c1"
measured = 6.19

[[record]]
compound = "CCOc1cc(C)c(-n2cnc(N)c(C(=O)Nc3cncc(C4CCCC(C)N4)c3)c2=O)c(C)c1 (single isomer, unassigned)"
measured = 6.19

[[record]]
compound = "COCC(N)c1cncc(NC(=O)c2c(N)ncn(-c3c(Cl)cc(Cl)cc3Cl)c2=O)c1 (single isomer, unassigned)"
measured = 6.84

[[record]]
compound = "Nc1ncn(-c2c(Cl)cc(C(F)(F)F)cc2Cl)c(=O)c1C(=O)Nc1cncc(CNCCO)c1"
measured = 6.62

[[record]]
compound = "CCOC[C@@H](N)c1cncc(NC(=O)c2c(N)ncn(-c3c(C)cc(COC)cc3C)c2=O)c1 (single isomer, unassigned)"
measured = 6.55

[[record]]
compound = "CCC[C@@H](N)c1cncc(NC(=O)c2c(N)ncn(-c3c(C)cc(C(F)F)cc3C)c2=O)c1"
measured = 6.71

[[record]]
compound = "COc1cc(Cl)c(-n2cnc(N)c(C(=O)Nc3cncc(C4(N)CCOCC4)c3)c2=O)c(Cl)c1"
measured = 6.19

[[record]]
compound = "Nc1ncn(-c2c(Cl)cc(C(F)F)cc2Cl)c(=O)c1C(=O)Nc1cncc([C@@H]2COCCCN2)c1 (single isomer, unassigned)"
measured = 6.73

[[record]]
compound = "Cc1cc(C)c(-n2cnc(N)c(C(=O)Nc3cncc([C@H]4CCCCN4)c3)c2=O)c(C)c1"
measured = 7.02

[[record]]
compound = "CN[C@@H](COC)c1cncc(NC(=O)c2c(N)ncn(-c3c(Cl)cc(OC)cc3Cl)c2=O)c1 (single isomer, unassigned)"
measured = 6.57

[[record]]
compound = "CCNCc1cncc(NC(=O)c2c(N)ncn(-c3c(Cl)cc(C(=O)OC)cc3Cl)c2=O)c1"
measured = 6.68


###

Catalogue of pIC50 readings, one per entry.
biological target: GSK3B (Homo sapiens, UniProt P49841); assay: In vitro enzymatic activity assay, GSK3β; type: biochemical; design: Full length human GSK3α or GSK3B expressed as N-terminal GST fusion proteins; GST (N); purchased Carna Biosciences (Japan); host or cells: baculovirus host; details: 1.0 mM ATP, 1.0 μM peptide substrate, 120 min, 25° C, read-out: Enzyme GSK3β (IC50)
Sequence (P49841 whole entry, the tested form may be a part): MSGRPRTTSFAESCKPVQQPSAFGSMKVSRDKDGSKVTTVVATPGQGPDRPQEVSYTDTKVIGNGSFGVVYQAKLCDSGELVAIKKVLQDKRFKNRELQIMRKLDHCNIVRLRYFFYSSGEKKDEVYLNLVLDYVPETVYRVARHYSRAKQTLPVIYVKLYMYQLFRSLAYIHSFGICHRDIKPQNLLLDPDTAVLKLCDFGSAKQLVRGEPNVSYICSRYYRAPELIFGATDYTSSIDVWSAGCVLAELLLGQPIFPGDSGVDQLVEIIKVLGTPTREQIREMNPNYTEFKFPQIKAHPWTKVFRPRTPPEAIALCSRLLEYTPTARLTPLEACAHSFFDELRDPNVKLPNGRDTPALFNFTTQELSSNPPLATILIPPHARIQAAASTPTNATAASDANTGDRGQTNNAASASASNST
pIC50: −log10 of the molar value.
ATTRIBUTE_MEASURED: pIC50

[[record]]
molecule = "COCc1cc(Cl)c(-n2cnc(N)c(C(=O)Nc3cncc([C@@H]4CCCCN4)c3)c2=O)c(Cl)c1"
attribute_measured = "pIC50"
measured = 6.33

[[record]]
molecule = "Cc1cc(C(F)(F)F)cc(C)c1-n1cnc(N)c(C(=O)Nc2cncc(C3CCCC(C)N3)c2)c1=O (single isomer, unassigned)"
attribute_measured = "pIC50"
measured = 5.97

[[record]]
molecule = "CNCc1cncc(NC(=O)c2c(N)ncn(-c3c(C)cc(C(F)F)cc3C)c2=O)c1"
attribute_measured = "pIC50"
measured = 5.95

[[record]]
molecule = "COC(=O)c1cc(Cl)c(-n2cnc(N)c(C(=O)Nc3cncc([C@@H]4CCCCN4)c3)c2=O)c(Cl)c1"
attribute_measured = "pIC50"
measured = 6.40

[[record]]
molecule = "COC[C@@H](N)c1cccc(NC(=O)c2c(N)ncn(-c3c(C)cc(OC)cc3Cl)c2=O)c1 (atropisomer, axis not shown)"
attribute_measured = "pIC50"
measured = 6.77

[[record]]
molecule = "Nc1ncn(-c2c(Cl)cc(C(F)F)cc2Cl)c(=O)c1C(=O)Nc1cncc([C@@H]2CCCN2)c1"
attribute_measured = "pIC50"
measured = 6.37

[[record]]
molecule = "Cc1cc(C(F)(F)F)cc(C)c1-n1cnc(N)c(C(=O)Nc2cncc([C@H]3CCCCN3)c2)c1=O"
attribute_measured = "pIC50"
measured = 6.53

[[record]]
molecule = "Cc1cccc(Cl)c1-n1cnc(N)c(C(=O)Nc2cccc([C@@H]3CCCN3)c2F)c1=O (single isomer, unassigned)"
attribute_measured = "pIC50"
measured = 6.52

[[record]]
molecule = "CCOc1cc(Cl)c(-n2cnc(N)c(C(=O)Nc3cncc(C(N)CC)c3)c2=O)c(Cl)c1 (single isomer, unassigned)"
attribute_measured = "pIC50"
measured = 6.69

[[record]]
molecule = "CCCOc1cc(C)c(-n2cnc(N)c(C(=O)Nc3cncc(CNC)c3)c2=O)c(C)c1"
attribute_measured = "pIC50"
measured = 6.11

[[record]]
molecule = "CCOc1cc(C)c(-n2cnc(N)c(C(=O)Nc3cncc(C(C)N)c3)c2=O)c(C)c1 (single isomer, unassigned)"
attribute_measured = "pIC50"
measured = 6.13

[[record]]
molecule = "COCc1cc(C)c(-n2cnc(N)c(C(=O)Nc3cncc(C4CCCCCN4)c3)c2=O)c(C)c1 (single isomer, unassigned)"
attribute_measured = "pIC50"
measured = 6.46

[[record]]
molecule = "COc1cc(Cl)c(-n2cnc(N)c(C(=O)Nc3cnc(F)c([C@@H]4CCCCN4)c3)c2=O)c(Cl)c1 (single isomer, unassigned)"
attribute_measured = "pIC50"
measured = 6.07

[[record]]
molecule = "Cc1cc(Cl)c(-n2cnc(N)c(C(=O)Nc3cncc([C@@H]4CCCN4)c3)c2=O)c(Cl)c1"
attribute_measured = "pIC50"
measured = 6.42

[[record]]
molecule = "CO[C@H](C)c1cc(C)c(-n2cnc(N)c(C(=O)Nc3cncc([C@@H](C)N)c3)c2=O)c(C)c1 (single isomer, unassigned) [Example 175]"
attribute_measured = "pIC50"
measured = 6.10

[[record]]
molecule = "C[C@@H](N)c1cncc(NC(=O)c2c(N)ncn(-c3c(Cl)cc(Cl)cc3Cl)c2=O)c1 (single isomer, unassigned)"
attribute_measured = "pIC50"
measured = 6.15

[[record]]
molecule = "C[C@@H](N)c1cncc(NC(=O)c2c(N)ncn(-c3c(Cl)cc(OC4CC4)cc3Cl)c2=O)c1 (single isomer, unassigned)"
attribute_measured = "pIC50"
measured = 6.85

[[record]]
molecule = "COc1cc(Cl)c(-n2cnc(N)c(C(=O)Nc3cncc([C@@H]4CCCCN4)c3)c2=O)c(Cl)c1"
attribute_measured = "pIC50"
measured = 6.46

[[record]]
molecule = "COc1cc(Cl)c(-n2cnc(N)c(C(=O)Nc3cncc([C@]4(N)CCCOC4)c3)c2=O)c(Cl)c1 (single isomer, unassigned) [Example 187]"
attribute_measured = "pIC50"
measured = 6.45

[[record]]
molecule = "COCc1cc(Cl)c(-n2cnc(N)c(C(=O)Nc3cncc(CNC(C)C)c3)c2=O)c(Cl)c1"
attribute_measured = "pIC50"
measured = 6.21

[[record]]
molecule = "Nc1ncn(-c2c(Cl)cc(OC3CC3)cc2Cl)c(=O)c1C(=O)Nc1cncc([C@@H]2CCCN2)c1"
attribute_measured = "pIC50"
measured = 6.52

[[record]]
molecule = "Nc1ncn(-c2c(Cl)cccc2Cl)c(=O)c1C(=O)Nc1cccc([C@@H]2COCCCN2)c1 (single isomer, unassigned)"
attribute_measured = "pIC50"
measured = 6.05

[[record]]
molecule = "CCC[C@@H](N)c1cncc(NC(=O)c2c(N)ncn(-c3c(C)cc(C(F)F)cc3C)c2=O)c1"
attribute_measured = "pIC50"
measured = 6.55


The reported numbers originate from patent US20260327191A1.
